Provenance of the data: PubChem BioAssay (NCI)

# System: DU-145 prostate
# assay.overview: NCI-60 one-dose screen, 48 h (100 = growth as untreated, 0 = no growth, -100 = all killed)
# test.settings: 10 µM unless noted
# Procedure: Cells are grown in 96 well plates and exposed to the test compound for 48 hours. Compounds are tested at a single concentration, which is 10^-5 M for most compounds. The reported endpoint is percent growth (GI% or GIPRCNT), where numbers from 0 - 100% represent growth inhibition, and numbers from -100% - 0 represent cell death. For example, a value of 40 represents 60% growth inhibition. A value of 0 means no net growth occurred over the course of the experiment. […]
This is part of a sample that, as a whole, favours compounds with a hit. Of some 83,000 tested, about 20% had one in any assay.
Reported growth values for a set of compounds

compound | growth (%)
C/C(=N\O)c1ccc(NC(=O)CSc2nnc(-c3cc(-c4ccc(S(C)(=O)=O)cc4)nc4ccccc34)n2-c2ccccc2)cc1 | 92.6
CCOC(=O)/C=C1\S/C(=N\Nc2cc(=O)[nH]c3ccccc23)N(c2ccccc2)C1=O | 109
C=C(C)[C@@H]1CC[C@]2(C(N)=O)CC[C@]3(C)[C@H](CC[C@@H]4[C@@]5(C)CC[C@H](OCCC#N)C(C)(C)[C@@H]5CC[C@]43C)[C@@H]12 | 94.7
CSc1nn2c(-c3ccc4ccccc4c3)ccnc2c1C#N | 43
O=C(Nc1ncccc1OCc1ccccc1)NC1CCCCCC1 | 92
O=S(=O)(NCCNc1nccc(-c2c(-c3cccc(O)c3)nc3occn23)n1)c1ccc(Br)cc1 | 44.8
CN(Cc1ccccc1)c1nc(Cl)c(C2CC(c3ccccc3)=NN2c2ccccc2)s1 (centres undefined) | 102
N#Cc1c(Nc2ccc(N3CCOCC3)cc2)nc(SCC(=O)c2ccc(Br)cc2)nc1-c1ccccc1 | 106
COc1ccc(/C=C(/c2ccccc2)[N+](=O)[O-])c(OC)c1 | 38.6

====

# Test system: SF-295 CNS
# assay.overview: NCI-60 one-dose screen, 48 h (100 = growth as untreated, 0 = no growth, -100 = all killed)
# test.settings: 10 µM unless noted
# Procedure: Cells are grown in 96 well plates and exposed to the test compound for 48 hours. Compounds are tested at a single concentration, which is 10^-5 M for most compounds. The reported endpoint is percent growth (GI% or GIPRCNT), where numbers from 0 - 100% represent growth inhibition, and numbers from -100% - 0 represent cell death. For example, a value of 40 represents 60% growth inhibition. A value of 0 means no net growth occurred over the course of the experiment. […]
Compounds without any hit were thinned out: in the full panel of roughly 83,000, 20% have a hit.
assay.readout: growth (%)

molecule | assay.readout | unit.annotation | assay.result
Cn1c2c(c3ccc(Cl)c(Cl)c31)C(C#N)C(C)(C)NC2=O (stereo not given) | growth | % | 76.1
Nc1ccc(-c2csc(-n3[nH]c(=O)ccc3=O)n2)cc1 | growth | % | 102
C[n+]1ccc(CCc2c[nH]c3ccccc23)cc1 | growth | % | 94.5
CC(=O)/C(=C/c1ccc([N+](=O)[O-])cc1)C(=O)c1ccccc1 | growth | % | 93.3
COc1cc2c(c(OC)c1OC)C(=O)CC(c1cccc(NC(=O)c3ccc(C#N)cc3)c1)O2 (stereo not given) | growth | % | 77.9
Ic1ccccc1I | growth | % | 106
O=S(=O)(NCCNc1nccc(-c2c(-c3ccc(F)c(O)c3)nc3sccn23)n1)c1ccc(F)cc1 | growth | % | 53.4
O=C(CCSc1nnc2n(Cc3ccccc3)c(=O)c3c4c(sc3n12)CCCC4)N1CCN(c2ccccc2)CC1 | growth | % | 96
N#C/C(=C\c1ccc([N+](=O)[O-])cc1)n1nnc2cc(F)c(F)cc21 | growth | % | 98.1
COc1cccc(-c2cc(-c3cccc(Cl)c3)c(C#N)c(=O)[nH]2)c1 | growth | % | 74.2
